- ASSAY_SYSTEM: Cytochrome P450 2C19 (Homo sapiens, UniProt P33261)
- Sequence (P33261 whole entry): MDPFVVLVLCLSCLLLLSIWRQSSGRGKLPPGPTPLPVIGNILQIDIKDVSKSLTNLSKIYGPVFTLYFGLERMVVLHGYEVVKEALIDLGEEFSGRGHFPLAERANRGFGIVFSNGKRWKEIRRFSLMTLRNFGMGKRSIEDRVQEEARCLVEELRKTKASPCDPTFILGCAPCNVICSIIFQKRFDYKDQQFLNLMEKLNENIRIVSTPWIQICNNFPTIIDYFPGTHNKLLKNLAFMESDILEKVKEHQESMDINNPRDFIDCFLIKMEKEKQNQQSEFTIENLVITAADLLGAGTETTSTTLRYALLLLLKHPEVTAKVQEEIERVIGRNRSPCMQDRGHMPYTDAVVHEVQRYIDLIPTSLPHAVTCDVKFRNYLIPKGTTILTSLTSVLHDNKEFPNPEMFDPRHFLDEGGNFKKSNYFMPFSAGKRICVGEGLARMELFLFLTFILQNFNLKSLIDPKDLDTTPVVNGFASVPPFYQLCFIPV
- EXPERIMENT_DESCRIPTION: Cytochrome panel assay with activity outcomes. Panel member name: p450-cyp2c19 Compounds with AC50 equal or less than 10 uM are considered active
- Type: functional
- STATED_CONDITIONS: read-out: AC50
MEASUREMENT_NAME: AC50

CNC(=O)COC(=O)c1cc2c(C)nn(-c3ccc(F)cc3)c2s1 :: 39.8 µM (inconclusive)
CN(C)c1nc(NCc2ccccc2)nc(N/N=C/c2ccc(Cl)cc2Cl)n1 :: 1 µM (inconclusive)
Cc1nnc(NC(=O)CCC(=O)NCc2cccs2)s1 :: 22.4 µM (inconclusive)
COC(=O)[C@@]1(Cc2ccccc2)[C@H]2c3cc(C(=O)N(C)C)n(CCN4CNCC4=O)c3C[C@H]2CN1C(=O)c1ccccc1 :: 31.6 µM (inconclusive)

// switching to the query compound
Exercise: Recorded AC50 for `c1ccc(-c2ccc3c(c2)c2c4n3CCN=C4CCC2)cc1` , please?
Key: 31.6 µM (inconclusive)

====

- ASSAY_SYSTEM: UniProt:P33261
- EXPERIMENT_DESCRIPTION: Cytochrome panel assay with activity outcomes. Panel member name: p450-cyp2c19 Compounds with AC50 equal or less than 10 uM are considered active
- Assay type: functional
- STATED_CONDITIONS: read-out: AC50
Please go through the items and note down their AC50.

Example molecules with recorded AC50:
O=C1CC(=O)N(CCc2ccc(F)cc2)C(=O)N1 :: 31.6 µM (inconclusive)
CCC(C)NCc1ccc(C(=O)OC)o1 (centres undefined) :: 15.8 µM (inconclusive)
O=c1[nH]c2ccccc2/c(=N\S(=O)(=O)c2ccc(Cl)cc2)n1-c1ccccc1 :: 25.1 µM (inconclusive)

// switching to the query molecule
Exercise: Recorded AC50 for `C/C(Cn1nc([N+](=O)[O-])cc1C)=N\NC(=O)c1ccc(O)cc1O` , please?
Key: 7.08 µM (inconclusive)

====

- ASSAY_SYSTEM: Polyadenylate-binding protein 1 (Homo sapiens, UniProt P11940)
- Sequence (P11940 whole entry, the tested form may be a part): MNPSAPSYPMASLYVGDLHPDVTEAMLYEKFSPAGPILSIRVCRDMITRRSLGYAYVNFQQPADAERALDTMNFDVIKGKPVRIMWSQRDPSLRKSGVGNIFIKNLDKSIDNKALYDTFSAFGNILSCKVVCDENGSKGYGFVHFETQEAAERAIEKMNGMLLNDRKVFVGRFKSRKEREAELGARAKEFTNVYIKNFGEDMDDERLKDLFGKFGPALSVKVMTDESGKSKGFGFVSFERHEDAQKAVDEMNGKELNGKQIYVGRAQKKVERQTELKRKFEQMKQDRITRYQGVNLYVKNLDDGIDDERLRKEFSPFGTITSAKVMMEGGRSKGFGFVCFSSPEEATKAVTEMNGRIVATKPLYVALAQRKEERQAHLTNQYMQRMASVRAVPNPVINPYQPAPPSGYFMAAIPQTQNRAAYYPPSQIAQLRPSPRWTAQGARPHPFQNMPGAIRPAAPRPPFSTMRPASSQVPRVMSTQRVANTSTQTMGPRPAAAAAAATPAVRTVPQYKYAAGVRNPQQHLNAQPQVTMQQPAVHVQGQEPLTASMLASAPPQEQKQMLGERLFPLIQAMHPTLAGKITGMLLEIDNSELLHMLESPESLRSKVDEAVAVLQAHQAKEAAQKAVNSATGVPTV
- EXPERIMENT_DESCRIPTION: MLLE domain peptide-binding blockers, IC50 – biochemical, fluorescence polarization, FITC-PAM2 peptide, dose response (AID 602259)
- Type: functional
- STATED_CONDITIONS: read-out: IC50_Mean
Activity calls are given as the source filed them.
MEASUREMENT_NAME: IC50

COc1cccc(-c2nc(=S)c3c(n2CCCO)CCCC3)c1 :: > 66 µM (inactive)
Cc1cc2cc(CNC(=O)c3ccc(C)c([N+](=O)[O-])c3)ccc2[nH]1 :: > 66 µM (inactive)
CC1=CC(=O)C=CC1=Nc1ccc(N(C)C)cc1 :: > 66 µM (inactive)
O=S(=O)([N-]c1nc2ccccc2nc1-[n+]1ccc(Cc2ccccc2)cc1)c1ccc(Br)s1 :: 52.3 µM (inactive)
CCCOc1ccc(C(=O)NNC(=S)NC(=O)c2cc(-c3ccc(Cl)cc3)nc3ccccc23)cc1 :: > 66 µM (inactive)

Working through the 4 molecules below one at a time, give IC50 for each.
1. Nc1nc(-c2ccco2)c(-c2ccco2)s1
2. COc1ccc(CN2CC(=O)N3[C@H]4c5ccccc5OC[C@@H]4[C@H](c4ccccc4)[C@]3(C)C2=O)cc1
3. CCN(CC)c1ccc(SS(=O)(=O)O)cc1
4. O=C(/C=C/c1cccc([N+](=O)[O-])c1)NC(=S)Nc1ccc(CN2CCOCC2)cc1

Key:
["> 66 µM (inactive)", "> 66 µM (inactive)", "> 66 µM (inactive)", "> 66 µM (inactive)"]

====

The source made the active and inactive calls.
Estrogen receptor beta (Homo sapiens, UniProt Q92731): recorded IC50 for assorted molecules;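 also: recombinant ER-beta bound to coactivator SRC1 peptide in presence of estradiol agonist; inhibitors block coactivator peptide binding and lower the FRET signal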
Sequence (Q92731 whole entry): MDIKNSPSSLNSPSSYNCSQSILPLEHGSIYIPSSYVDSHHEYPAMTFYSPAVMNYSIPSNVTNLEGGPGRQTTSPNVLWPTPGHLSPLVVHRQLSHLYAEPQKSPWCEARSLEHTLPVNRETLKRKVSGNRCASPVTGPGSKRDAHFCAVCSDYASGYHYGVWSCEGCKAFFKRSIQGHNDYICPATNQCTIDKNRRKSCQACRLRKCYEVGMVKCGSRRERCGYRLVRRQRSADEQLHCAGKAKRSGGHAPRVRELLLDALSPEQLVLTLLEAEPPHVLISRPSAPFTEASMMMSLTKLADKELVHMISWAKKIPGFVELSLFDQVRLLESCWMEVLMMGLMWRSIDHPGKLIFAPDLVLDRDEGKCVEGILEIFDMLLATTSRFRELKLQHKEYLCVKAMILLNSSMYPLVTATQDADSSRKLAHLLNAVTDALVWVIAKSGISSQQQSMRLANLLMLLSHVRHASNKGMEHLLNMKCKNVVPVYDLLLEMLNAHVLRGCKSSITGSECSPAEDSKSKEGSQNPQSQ

Example molecules with recorded IC50:
O=S(=O)(NCC(O)COCc1ccco1)c1cccs1 (centres undefined) :: 20.6 µM (active)
O=C(CSc1nnc(SCC(=O)c2ccco2)s1)c1ccco1 :: 6.51 µM (active)

Working through the 2 molecules below one at a time, give IC50 for each.
1. CCOC(=O)Cc1cc(O)n2nc(-c3ccc(C)cc3)cc2n1
2. Nc1nc(-c2ccco2)c(-c2ccco2)s1

Key:
1: 6.5 µM (active); 2: > 50 µM (not active)

====

- ASSAY_SYSTEM: Cytochrome P450 1A2 (Homo sapiens, UniProt P05177);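 also: PubChem cytochrome P450 panel assay, CYP1A2 panel member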
- Sequence (P05177 whole entry): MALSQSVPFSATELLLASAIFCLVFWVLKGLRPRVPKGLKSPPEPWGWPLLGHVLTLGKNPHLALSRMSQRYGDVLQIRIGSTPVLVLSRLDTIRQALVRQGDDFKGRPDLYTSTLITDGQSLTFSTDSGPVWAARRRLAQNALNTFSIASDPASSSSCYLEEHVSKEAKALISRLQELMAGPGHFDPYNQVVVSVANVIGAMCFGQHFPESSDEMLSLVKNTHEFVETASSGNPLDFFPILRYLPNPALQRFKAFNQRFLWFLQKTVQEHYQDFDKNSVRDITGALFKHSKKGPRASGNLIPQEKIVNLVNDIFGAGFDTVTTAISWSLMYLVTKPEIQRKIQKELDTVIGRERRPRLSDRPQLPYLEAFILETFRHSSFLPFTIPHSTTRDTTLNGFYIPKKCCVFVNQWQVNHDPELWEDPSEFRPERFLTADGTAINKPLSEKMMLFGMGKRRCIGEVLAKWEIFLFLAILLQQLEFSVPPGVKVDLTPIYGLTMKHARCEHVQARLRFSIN
MEASUREMENT_NAME: AC50

COC(=O)[C@@]1(Cc2ccccc2)[C@H]2c3cc(C(=O)N(C)C)n(CCN4CNCC4=O)c3C[C@H]2CN1C(=O)c1ccccc1 :: 5.01 µM (inconclusive)

Working through the 6 molecules below one at a time, give AC50 for each.
1. C/C(Cn1nc([N+](=O)[O-])cc1C)=N\NC(=O)c1ccc(O)cc1O
2. CN(C)CCN(Cc1ccc(Cl)cc1)c1ccccn1
3. c1ccc(-c2ccccn2)nc1
4. O=C(NNC(=O)c1cccnc1)Nc1cccc2ccccc12
5. Cc1ccc(NC(=S)N2CCN(CCN3C(=O)c4cccc5cccc(c45)C3=O)CC2)cc1
6. O=[N+]([O-])c1ccc(NN=C2c3ccccc3Cc3ccccc32)c([N+](=O)[O-])c1

Key:
1. 25.1 µM (inconclusive)
2. 12.6 µM (inconclusive)
3. 25.1 µM (inconclusive)
4. 14.1 µM (inconclusive)
5. 20 µM (inconclusive)
6. 0.794 µM (inconclusive)

Working through the 5 molecules below one at a time, give AC50 for each.
1. Cn1c(=O)n(-c2cccc(Cl)c2)c(=O)c2c3c(sc21)COC(C)(C)C3
2. Cc1ccccc1NS(=O)(=O)c1cc(C(=O)Nc2cccc(N(C)S(C)(=O)=O)c2)ccc1C
3. Cc1ccc(-c2cc(-c3nnc(SCC(=O)NC(C)C(C)C)n3N)c3ccccc3n2)cc1 (stereo not given)
4. CC(=O)Oc1ccccc1C(=O)Oc1ccccc1C(=O)O [DIPLOSALSALATE]
5. O=C(NCCc1c[nH]c2ccccc12)[C@H]1C[C@@H]1[C@H](NP(=O)(c1ccccc1)c1ccccc1)c1ccccc1

Key:
1. 14.1 µM (inconclusive)
2. 17.8 µM (inconclusive)
3. 31.6 µM (inconclusive)
4. 12.6 µM (inconclusive)
5. 12.6 µM (inconclusive)

Working through the 4 molecules below one at a time, give AC50 for each.
1. COc1ccc2[nH]cc(CCNc3ncncc3-c3ccc(C(=O)N(C)C)cc3)c2c1
2. CC1CN(C(=S)NC(=O)c2ccc([N+](=O)[O-])cc2)CC(C)O1 (stereo not given)
3. Oc1ccc(Br)cc1CNn1cnnc1
4. CC(C)(C)c1ccc(-c2nnc(SCC(=O)c3ccc4c(c3)OCCO4)o2)cc1

Key:
20 µM (inconclusive)
12.6 µM (inconclusive)
14.1 µM (inconclusive)
2.24 µM (inconclusive)

Working through the 4 molecules below one at a time, give AC50 for each.
1. CCOc1cc(C)ccc1OCc1nnc(SCC(=O)c2cccc([N+](=O)[O-])c2)n1C
2. Cc1ccccc1NC(=O)CSc1nc(N2CCCCC2)nc(N2CCCCC2)n1
3. COC(=O)[C@H]1C(=O)[C@H](C(=O)OC)[C@@H]2CC[C@H]1N2C
4. NC(=O)COc1c(F)cc(SCCNS(=O)(=O)c2ccccc2)cc1F

Key:
1: 15.8 µM (inconclusive); 2: 3.55 µM (inconclusive); 3: 0.794 µM (inconclusive); 4: 31.6 µM (inconclusive)

====

- ASSAY_SYSTEM: Cytochrome P450 2C19 (Homo sapiens, UniProt P33261)
- EXPERIMENT_DESCRIPTION: Cytochrome panel assay with activity outcomes. Panel member name: p450-cyp2c19 Compounds with AC50 equal or less than 10 uM are considered active
- Format: functional
- STATED_CONDITIONS: read-out: AC50
MEASUREMENT_NAME: AC50

Example compounds with recorded AC50:
COc1ccc(C(=O)Nc2cccc(/C(C)=N/NC(=O)c3ccc([N+](=O)[O-])cc3)c2)cc1OC :: 31.6 µM (inconclusive)
O=C(c1cnccn1)N1CCC2(CCCN(C(c3ccccc3)c3ccccc3)C2)CC1 :: 25.1 µM (inconclusive)
Cc1ccc2c(c1)N(CCC(=O)NCCN1CCOCC1)C(=O)CO2 :: 39.8 µM (inconclusive)
CC1CN(C(=S)NC(=O)c2ccc([N+](=O)[O-])cc2)CC(C)O1 (stereo not given) :: 31.6 µM (inconclusive)
CC(C)(C)c1ccc(-c2nnc(SCC(=O)c3ccc4c(c3)OCCO4)o2)cc1 :: 3.98 µM (inconclusive)
O=C(NNC(=O)c1cccnc1)Nc1cccc2ccccc12 :: 28.2 µM (inconclusive)
O=C1NC(=O)N(CCNc2ncc(C(F)(F)F)cc2Cl)C(=O)C1/C=N/OCc1c(F)cccc1Cl (stereo not given) :: 8.91 µM (inconclusive)
CCC(Nc1cc(OC)ccc1OC)=C1C(=O)NC(=O)NC1=O :: 31.6 µM (inconclusive)
O=c1[nH]c(=S)[nH]c(-c2ccccc2)c1Cc1c(O)ccc2ccccc12 :: 0.0794 µM (inconclusive)

// switching to the query compound
Exercise: Recorded AC50 for `O=C(CNS(=O)(=O)c1ccc(Br)s1)N1CCC(N2CCCCC2)CC1` , please?
Key: 20 µM (inconclusive)
